pIC50: −log10 of the molar value.
Compiled pIC50 measurements on DGKα (Homo sapiens, UniProt P23743) taken from the literature.
Assign a class from recorded pIC50; defined classes: low bracket: < 5; middle bracket: ≥ 5 and < 6; high bracket: ≥ 6

Task item: # classify by pIC50 band: "N[C@H]1CS(=O)(=O)c2ccc(-c3nnc(C4(C(F)F)CNC4)o3)cc2N(Cc2ccc(-c3ccc(C(F)(F)F)cc3)cc2)C1=O"
Reply: low bracket

Task item: # classify by pIC50 band: CCn1c(CC#N)nc2c(N3C[C@@H](C)N(C(C)c4ccc5c(c4)CN(C)C5=O)C[C@@H]3C)nc(=O)n(C)c21 (stereo partly drawn)
Reply: low bracket

Task item: # classify by pIC50 band: COc1cc(F)ccc1C(C)N1C[C@H](C)N(c2cc(=O)n(C)c3c2nc(CC#N)n3C)C[C@H]1C (single isomer, unassigned)
Reply: low bracket

Task item: # classify by pIC50 band: CC(c1ccc2nccnc2c1)N1C[C@H](C)N(c2cc(=O)n(C)n3cc(CC#N)nc23)C[C@H]1C (mixture of isomers)
Reply: middle bracket

Task item: # classify by pIC50 band: "C=C(C)n1cc2c(n1)c(N1C[C@@H](C)N(Cc3ccc(OC(F)(F)F)cc3)C[C@@H]1C)cc(=O)n2C"
Reply: high bracket

Task item: # classify by pIC50 band: CC[C@H]1CN(C(C)c2ccc(OC3CCOC3)cc2)[C@H](CC)CN1c1cc(=O)n(C)c2cn(CC#N)nc12 (stereo partly drawn)
Reply: high bracket

Task item: # classify by pIC50 band: COc1ccc(-c2ccc(CN3C(=O)[C@@H](N)CS(=O)(=O)c4ccc(-c5nnc(C6(CO)CCCO6)o5)cc43)cc2)cc1 (stereo partly drawn)
Reply: low bracket

Task item: # classify by pIC50 band: CC(c1ccc2c(c1)OC(F)(F)O2)N1C[C@H](C)N(c2nc(=O)n(C)c3c2nc(CC#N)n3C)C[C@H]1C (stereo partly drawn)
Reply: low bracket

Task item: # classify by pIC50 band: CC[C@H]1CN(C(C)c2ccc3cnccc3c2)[C@H](CC)CN1c1cc(=O)n(C)c2cn(CC#N)nc12 (stereo partly drawn)
Reply: high bracket

Task item: # classify by pIC50 band: COCCN1CC(c2nnc(-c3ccc4c(c3)N(Cc3ccc(-c5noc(C(F)(F)F)n5)cc3)C(=O)[C@@H](N)CS4(=O)=O)o2)CC(F)(F)C1 (stereo partly drawn)
Reply: low bracket

Task item: # classify by pIC50 band: CC(c1ccc2nccnc2c1)N1C[C@H](C)N(c2c(F)c(=O)n(C)c3cn(CC#N)nc23)C[C@H]1C (stereo partly drawn)
Reply: middle bracket

Task item: # classify by pIC50 band: CC(c1ccc2ncc(C(F)F)nc2c1)N1C[C@H](C)N(c2cc(=O)n(C)c3cn(CC#N)nc23)C[C@H]1C (stereo partly drawn)
Reply: middle bracket
